Listed next: entries and their corresponding phytotoxicity rating CHEAL.
tested on: lambsquarters (Chenopodium album, CHEAL); test: Pre-emerge test, greenhouse herbicide activity screening; type: in vivo; settings: pre-emerge, 63 g ai/ha, 14 days after application, scale 0-100

{"MOLECULE": "C=Cc1ccc(C(=O)Nc2c(OC)c(Br)cc(F)c2-n2c(=O)cc(C(F)(F)F)n(C)c2=O)cc1 [2-182]", "phytotoxicity rating CHEAL": 100}
{"MOLECULE": "COc1c(Cl)cc(F)c(-n2c(=O)cc(C(F)(F)F)n(C)c2=O)c1NC(=O)c1cc2ccccc2cc1C [2-157]", "phytotoxicity rating CHEAL": 100}
{"MOLECULE": "COc1c(Cl)cc(F)c(-n2c(=O)cc(C(F)(F)F)n(C)c2=O)c1NC(=O)CSC(C)C [2-173]", "phytotoxicity rating CHEAL": 90}
